Each recorded value in this set is attributed to patent US20230183336A1.

# Target desc: T1, recombinant mouse LRP5-His chimera (mouse, UniProt Q91VN0 31-1383)
# T1 construct: extracellular domain; also called ECD of mouse LRP5; not shown: His tag
# T1 sequence (looked up): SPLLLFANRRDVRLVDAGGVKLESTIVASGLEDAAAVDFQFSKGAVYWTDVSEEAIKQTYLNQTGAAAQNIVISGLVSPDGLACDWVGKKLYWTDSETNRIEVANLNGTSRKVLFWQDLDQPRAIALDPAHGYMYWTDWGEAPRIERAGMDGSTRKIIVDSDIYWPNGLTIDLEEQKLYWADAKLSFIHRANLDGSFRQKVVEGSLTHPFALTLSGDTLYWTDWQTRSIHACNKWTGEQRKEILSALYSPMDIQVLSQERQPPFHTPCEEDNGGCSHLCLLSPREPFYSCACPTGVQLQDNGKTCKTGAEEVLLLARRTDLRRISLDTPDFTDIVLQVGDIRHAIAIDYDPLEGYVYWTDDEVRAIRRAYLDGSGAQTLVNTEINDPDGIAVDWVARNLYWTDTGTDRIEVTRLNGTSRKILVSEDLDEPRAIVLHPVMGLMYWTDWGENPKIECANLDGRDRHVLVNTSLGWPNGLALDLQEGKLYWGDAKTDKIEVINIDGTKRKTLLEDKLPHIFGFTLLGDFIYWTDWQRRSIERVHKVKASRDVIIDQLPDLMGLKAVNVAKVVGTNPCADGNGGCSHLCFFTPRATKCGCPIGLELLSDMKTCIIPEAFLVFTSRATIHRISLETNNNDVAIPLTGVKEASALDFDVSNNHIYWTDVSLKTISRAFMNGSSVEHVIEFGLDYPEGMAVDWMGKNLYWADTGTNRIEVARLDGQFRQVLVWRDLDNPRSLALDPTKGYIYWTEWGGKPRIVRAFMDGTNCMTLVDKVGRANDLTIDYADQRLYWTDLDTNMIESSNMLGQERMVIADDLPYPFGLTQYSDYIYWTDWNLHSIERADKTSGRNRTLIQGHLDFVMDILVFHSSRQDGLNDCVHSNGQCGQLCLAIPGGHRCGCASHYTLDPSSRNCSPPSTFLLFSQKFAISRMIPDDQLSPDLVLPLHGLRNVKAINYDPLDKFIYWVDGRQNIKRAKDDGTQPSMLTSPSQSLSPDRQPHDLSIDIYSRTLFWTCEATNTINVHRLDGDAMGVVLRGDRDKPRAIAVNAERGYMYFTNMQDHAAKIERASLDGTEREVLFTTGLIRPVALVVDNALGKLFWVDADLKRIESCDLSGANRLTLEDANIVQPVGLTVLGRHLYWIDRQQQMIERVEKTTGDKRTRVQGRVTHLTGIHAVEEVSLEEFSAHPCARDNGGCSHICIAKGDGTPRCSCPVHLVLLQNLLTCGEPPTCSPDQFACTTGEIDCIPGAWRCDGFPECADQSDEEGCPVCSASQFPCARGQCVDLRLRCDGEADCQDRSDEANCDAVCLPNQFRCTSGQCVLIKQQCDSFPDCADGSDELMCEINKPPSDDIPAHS
# Procedure text: single-point ELISA, coated antigen, purified Fab or IgG1, anti-kappa-HRP
Recorded metric: binding result

binder="LRP5-D9 (antibody, V domains shown, Fab-phage in the screen) VH: EVQLVESGGGLVQPGGSLRLSCAASGFNISYSYIHWVRQAPGKGLEWVASIYSSYGYTYYADSVKGRFTISADTSKNTAYLQMNSLRAEDTAVYYCARHYSYFFYAMDYWGQGTLVTVSS VL: DIQMTQSPSSLSASVGDRVTITCRASQSVSSAVAWYQQKPGKAPKLLIYSASSLYSGVPSRFSGSRSGTDFTLTISSLQPEDFATYYCQQASYSPITFGQGTKVEIKR" observed_result=binds
binder="LRP5-R3O_D3 (antibody, V domains shown, Fab-phage in the screen; also called LRP5-R30_D3; LRP5-R30D3) VH: EVQLVESGGGLVQPGGSLRLSCAASGFNFSSSSIHWVRQAPGKGLEWVASISSSYGYTYYADSVKGRFTISADTSKNTAYLQMNSLRAEDTAVYYCARSWAMDYWGQGTLVTVSS VL: DIQMTQSPSSLSASVGDRVTITCRASQSVSSAVAWYQQKPGKAPKLLIYSASSLYSGVPSRFSGSRSGTDFTLTISSLQPEDFATYYCQQYWAYYSPITFGQGTKVEIKR" observed_result=binds
